Value source: ChEMBL document CHEMBL3352778

# Species: Homo sapiens
# METHOD_DESCRIPTION: Agonist activity at human full length Flag-tagged RXR/His-tagged VDR assessed as ability to recruit coactivator DRIP205 up to 500 uM by Alphascreen assay
The source made the active and inactive calls. No cut-off for these calls is given here.
ENDPOINT_NAME: Activity

These solved cases illustrate the format of a correct answer.
{"columns": ["COMPOUND", "Activity"],
 "data": [
  ["O=C1CC=C(c2ccccc2)O1", "inactive"],
  ["CCn1c(O)cc(C)cc1=O", "inactive"],
  ["Oc1cnn(-c2ccccc2)c1Cl", "inactive"],
  ["O=C1CCCC=C(Cl)N1c1ccccc1", "inactive"],
  ["Nc1ccc2c(c1)N=C(O)CN2", "inactive"]
]}

Shifting focus to the compound that follows.
Query: Report Activity, nothing else, for this compound: "OC(c1ccc(-c2cccs2)cc1)(C(F)(F)F)C(F)(F)F"
Reply: inactive
